# ASSAY_SYSTEM: Rhinovirus 3C protease (RVP) serotype-14 (Human rhinovirus 14, UniProt P03303)
# Construct: Recombinant Rhinovirus 3C proteases from serotypes 14, 16, 2 or 89 were prepared; made in house
# Sequence (P03303 1538-1719): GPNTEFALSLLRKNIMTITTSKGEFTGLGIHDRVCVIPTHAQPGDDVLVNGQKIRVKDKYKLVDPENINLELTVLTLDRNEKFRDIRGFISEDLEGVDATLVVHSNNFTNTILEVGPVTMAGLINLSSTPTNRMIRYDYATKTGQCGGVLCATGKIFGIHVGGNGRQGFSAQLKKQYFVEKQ
# ASSAY: Inhibition of Rhinovirus Protease, serotype 14 (FRET assay)
# Assay type: biochemical
# RUN_PARAMETERS: read-out: kobs/I
ATTRIBUTE_MEASURED: kinact/KI

>>> recorded_measurement("COCCOC(=O)/C=C/[C@H](CCC(N)=O)NC(=O)[C@H](Cc1ccccc1)N(C)C(=O)[C@H](CC(C)C)NC(=O)SC1CCCC1")
"24300 M⁻¹ s⁻¹"
>>> recorded_measurement("CCOC(=O)/C(C)=C/[C@H](CCC(N)=O)NC(=O)[C@H](Cc1ccccc1)N(C)C(=O)[C@H](CSc1ccccc1)NC(=O)SC1CCCC1")
"6500 M⁻¹ s⁻¹"
>>> recorded_measurement("CCOC(=O)C=CC(CCC(N)=O)NC(=O)C1CC(OC(C)(C)C)CN1C(=O)C(CC(C)C)NC(=O)OCc1ccccc1 (stereo not drawn)")
"605 M⁻¹ s⁻¹"
>>> recorded_measurement("CCOC(=O)/C=C/[C@H](CCC(N)=O)NC(=O)[C@H](Cc1ccccc1)N(C)C(=O)[C@H](CC(C)C)NC(=O)OCc1ccccc1")
"5300 M⁻¹ s⁻¹"
>>> recorded_measurement("CCOC(=O)/C(C)=C/[C@H](CCC(N)=O)NC(=O)[C@H](Cc1ccccc1)N(C)C(=O)[C@H](CC(C)C)NC(=O)SC1CCCCC1")
"2200 M⁻¹ s⁻¹"
>>> recorded_measurement("CCSC(=O)N[C@@H](CC(C)C)C(=O)N(C)[C@@H](Cc1ccccc1)C(=O)N[C@H](/C=C/C(=O)N(C)OC)CCC(N)=O")
"2000 M⁻¹ s⁻¹"
>>> recorded_measurement("CCCOC(=O)/C=C/[C@H](CCC(N)=O)NC(=O)[C@H](Cc1ccccc1)N(C)C(=O)[C@H](CC(C)C)NC(=O)SC1CCCC1")
"13500 M⁻¹ s⁻¹"
>>> recorded_measurement("CCOC(=O)/C=C/[C@H](CCC(N)=O)NC(=O)[C@H](Cc1ccccc1)N(C)C(=O)[C@H](CC(C)C)NC(=O)SCc1ccccc1")
"36400 M⁻¹ s⁻¹"
>>> recorded_measurement("CON(C)C(=O)/C=C/[C@H](CCC(N)=O)NC(=O)[C@@H]1[C@@H](c2ccccc2)CCN1C(=O)[C@H](CC(C)C)NC(=O)OCc1ccccc1")
"100 M⁻¹ s⁻¹"
>>> recorded_measurement("CCOC(=O)/C(C)=C/[C@H](CCC(N)=O)NC(=O)[C@H](Cc1ccccc1)N(C)C(=O)[C@H](CC(C)C)NC(=O)SCC1CCCCC1")
"2350 M⁻¹ s⁻¹"
>>> recorded_measurement("CCOC(=O)/C=C/[C@H](CCC(N)=O)NC(=O)[C@@H]1[C@@H](C)CCN1C(=O)[C@H](CC(C)C)NC(=O)OCc1ccccc1")
"256 M⁻¹ s⁻¹"
>>> recorded_measurement("CCOC(=O)/C=C/[C@H](CCC(N)=O)NC(=O)[C@H](Cc1ccc(OC)cc1)N(C)C(=O)[C@H](CC(C)C)NC(=O)OCc1ccccc1")
"16600 M⁻¹ s⁻¹"

* * *

# System: CVB-3
# ASSAY: Anticoxsackieviral HI-HeLa Cell Culture Assay, CVB-3
# Type: cell-based, Coxsackie strain B-3
# RUN_PARAMETERS: 24 h; CVB-3 infection of Hi-HeLa cells, XTT, one day
# Experimental: The ability of compounds to protect cells against CVA-21 or CVB-3 infection was measured by the XTT dye reduction method. Briefly, HI-HeLa cells were infected with CVA-21 or CVB-3 at a multiplicity of infection (m.o.i.) of 0.05 (CVA-21) and 0.08 (CVB-3) or mock-infected with medium only. […] One day later, XTT/PMS was added to test plates, and the amount of formazan produced was quantified spectrophotometrically at 450/650 nm. […] The therapeutic index (TI) was calculated by dividing the CC50 by the EC50. […]
pEC50: −log10 of the molar value.
ATTRIBUTE_MEASURED: pEC50

>>> recorded_measurement("Cc1cc(CCCCCOc2c(Cl)cc(C3=NCCO3)cc2Cl)on1 [WIN 54954, reference compound]")
"< 4.00"
>>> recorded_measurement("CCOC(=O)/C=C/[C@H](CCC(N)=O)NC(=O)[C@H](Cc1ccccc1)N(C)C(=O)[C@H](CC(C)C)NC(=O)OCc1ccccc1 [Compound 2]")
5.70
>>> recorded_measurement("CCOC(=O)c1ccc(OCCC2CCN(c3ccc(C)nn3)CC2)cc1 [Pirodavir, reference compound]")
"< 4.00"
